# TARGET_OF_ASSAY: Activated human plasma kallikrein (Enzyme Research Laboratories, HPKa 1303) (human, UniProt P03952 20-638)
# Sequence (P03952 20-638 limits assumed): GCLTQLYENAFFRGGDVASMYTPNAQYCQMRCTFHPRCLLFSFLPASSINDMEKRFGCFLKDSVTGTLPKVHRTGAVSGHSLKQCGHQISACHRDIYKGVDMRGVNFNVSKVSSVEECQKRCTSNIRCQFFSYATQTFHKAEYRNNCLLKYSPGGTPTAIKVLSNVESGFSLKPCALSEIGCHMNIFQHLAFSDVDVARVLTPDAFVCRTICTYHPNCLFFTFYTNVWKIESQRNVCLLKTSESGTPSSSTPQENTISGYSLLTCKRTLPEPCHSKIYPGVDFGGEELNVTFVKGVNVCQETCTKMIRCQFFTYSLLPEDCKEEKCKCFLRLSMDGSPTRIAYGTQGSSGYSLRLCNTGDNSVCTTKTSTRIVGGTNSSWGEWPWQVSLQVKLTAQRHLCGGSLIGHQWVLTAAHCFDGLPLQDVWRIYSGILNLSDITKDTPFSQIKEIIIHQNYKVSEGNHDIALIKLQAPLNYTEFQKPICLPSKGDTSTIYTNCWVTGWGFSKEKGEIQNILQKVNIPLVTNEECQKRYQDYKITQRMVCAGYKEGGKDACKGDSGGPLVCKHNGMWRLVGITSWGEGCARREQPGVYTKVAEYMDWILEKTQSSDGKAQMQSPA
# METHOD_NOTES: cell-based or functional assay
Bridge positions count the residues as written; N and C are the ends. Square brackets hold non-standard residues; d marks the D form. mXylyl = xylyl linker from dibromoxylene joining the two cysteines; des‑NH2 = missing amino-terminal amine group; Phg = N[C@H](C(=O)O)c1ccccc1; Tle = CC(C)(C)[C@H](N)C(=O)O; AEA = NCCOCC(=O)O
EXPERIMENTAL_ENDPOINT: Avg. IC50 (µM)
Write it as a number; the unit µM goes unstated.

Exam item: Read the entry {des‑NH2}-CP[Phg]C-{4‑(aminomethyl)benzimidamide} (linker 1-4 via mXylyl) [R2221] and write its reported Avg. IC50.
Marked response: 0.401

Exam item: Read the entry {des‑NH2}-C[AEA][Phg]CR[Tle]-NH2 (linker 1-4 via mXylyl) [R2151] and write its reported Avg. IC50.
Marked response: 1.94
